# System: KM12 colon
# Test details: NCI-60 one-dose screen, 48 h (100 = growth as untreated, 0 = no growth, -100 = all killed)
# Test settings: 10 µM unless noted
This is part of a sample that, as a whole, favours compounds with a hit. Of some 83,000 tested, about 20% had one in any assay. Activity calls are given as the source filed them. Rule for the calls: active = growth percent below 10; inactive = the rest.
Listed next: entries and their corresponding growth.

> print(dat)
                                   compound  system.name  measurement.kind       test.result
1  CCOP1(=O)CC(C)=C(Cl)C(P(=O)(O)O)C1 (stereo not given)   KM12 colon            growth   105% (inactive)
2                   CC(=O)Nc1ccc(CC#N)cc1Br   KM12 colon            growth   107% (inactive)
3  COc1ccc(C(O)(c2ccccc2)C(C(=O)O)c2ccccc2)cc1 (stereo not given)   KM12 colon            growth  93.9% (inactive)
4  Cc1nnc(/N=C2\NC(=O)/C(=C/C=C/c3ccccc3)S2)s1   KM12 colon            growth  42.7% (inactive)
5    N=C(N)c1ccc(-c2ccc(-c3ccc(F)cc3)s2)cc1   KM12 colon            growth   -87.3% (active)
6  COC(=O)c1ccc2[nH]c(O)c(C(=Nc3ccc(N(C)C(=O)CN4CCN(C)CC4)cc3)c3ccc(N)cc3)c2c1   KM12 colon            growth  18.4% (inactive)
7  COc1ccc(C2C3(C#N)C(N)=NC(=C(C#N)C#N)C23C#N)cc1OC (stereo not given)   KM12 colon            growth   118% (inactive)
8  O=Nc1c(-c2c(O)[nH]c3cc(Br)ccc23)[nH]c2ccccc12   KM12 colon            growth   -89.9% (active)

**Q:** Checklist item: growth tested on KM12 colon, entry `O=C1C(Cl)=C(SC2=NCCN2)C(=O)c2ccccc21` , value?
**A:** 75.5% (inactive)

**Q:** Find the measured growth: item `O=C(Nc1cccc(Cn2c(=O)[nH]c3ccc(Oc4ncccn4)cc3c2=O)c1)c1cc(Cl)cc(Cl)c1` , target or system KM12 colon.
**A:** 40.6% (inactive)
